Target: Phosphatidylinositol 4,5-bisphosphate 3-kinase catalytic subunit alpha isoform (Homo sapiens, UniProt P42336)
Sequence (P42336 whole entry, canonical isoform): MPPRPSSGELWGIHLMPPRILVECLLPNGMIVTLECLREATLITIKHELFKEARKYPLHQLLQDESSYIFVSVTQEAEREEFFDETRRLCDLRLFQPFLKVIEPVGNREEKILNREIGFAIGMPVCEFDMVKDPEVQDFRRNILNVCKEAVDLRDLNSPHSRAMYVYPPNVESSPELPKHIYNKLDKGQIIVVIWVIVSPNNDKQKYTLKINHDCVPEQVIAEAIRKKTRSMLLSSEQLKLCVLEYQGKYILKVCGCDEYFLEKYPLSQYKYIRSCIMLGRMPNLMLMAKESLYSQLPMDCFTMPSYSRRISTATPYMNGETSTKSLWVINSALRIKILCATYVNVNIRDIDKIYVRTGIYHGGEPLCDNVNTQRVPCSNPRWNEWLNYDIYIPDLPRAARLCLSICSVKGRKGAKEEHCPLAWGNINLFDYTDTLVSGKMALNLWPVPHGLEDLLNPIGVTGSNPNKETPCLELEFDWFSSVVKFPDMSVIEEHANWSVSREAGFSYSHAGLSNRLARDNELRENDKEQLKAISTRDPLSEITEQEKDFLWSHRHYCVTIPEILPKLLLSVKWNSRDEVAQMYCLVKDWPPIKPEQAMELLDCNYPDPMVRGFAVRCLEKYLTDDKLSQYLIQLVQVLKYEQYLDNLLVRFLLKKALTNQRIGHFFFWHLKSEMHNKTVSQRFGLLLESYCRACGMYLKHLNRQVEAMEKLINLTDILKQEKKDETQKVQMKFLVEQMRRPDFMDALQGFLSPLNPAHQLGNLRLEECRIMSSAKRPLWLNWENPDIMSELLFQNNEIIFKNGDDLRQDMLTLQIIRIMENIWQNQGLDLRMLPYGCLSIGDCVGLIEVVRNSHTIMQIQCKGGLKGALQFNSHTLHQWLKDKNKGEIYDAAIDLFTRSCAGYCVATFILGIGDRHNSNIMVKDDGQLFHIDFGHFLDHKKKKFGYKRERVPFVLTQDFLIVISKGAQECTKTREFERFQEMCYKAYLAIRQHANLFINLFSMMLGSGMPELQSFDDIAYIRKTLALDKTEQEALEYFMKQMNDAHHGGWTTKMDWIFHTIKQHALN
Experiment: Inhibition of recombinant GST-tagged PI3K p110alpha using [32P]ATP after 60 mins by scintillation proximity assay
Each record is given yes if its reported Ki is strictly below 40 nM. Records at or above 40 nM are given no.

>>> print(df.to_string())
                               given_smiles  class_name
0  CC(=O)Nc1nc(C)c(-c2ccc(S(C)(=O)=O)c(C#N)c2)s1          no
1  Cc1nc(NC(=O)N2CCC[C@H]2C(N)=O)sc1-c1ccc(S(C)(=O)=O)c(C(F)(F)F)c1         yes
2  Cc1cc(NC(=O)CCNC(=O)Nc2nc(C)c(-c3ccc(-n4cccn4)cc3)s2)no1          no
3    CC(=O)Nc1nc(C)c(-c2ccc(-n3cccn3)cc2)s1         yes
4  CCn1nnc(CCNC(=O)Nc2nc(C)c(-c3ccc(S(C)(=O)=O)c(F)c3)s2)n1          no
5      CC(=O)Nc1nc(C)c(-c2ccc(C(C)=O)cc2)s1          no
6  Cc1nc(NC(=O)NCCC(=O)OC(C)(C)C)sc1-c1ccc(S(C)(=O)=O)c(F)c1          no
7  Cc1cc(NC(=O)CCNC(=O)Nc2nc(C)c(-c3ccc(S(C)(=O)=O)c(F)c3)s2)no1          no
8  Cc1nc(NC(=O)N2CCC[C@H]2C(N)=O)sc1-c1ccc(-n2cccn2)cc1         yes
9  CC(=O)Nc1nc(C)c(-c2ccc(S(C)(=O)=O)c(C(F)(F)F)c2)s1         yes

----------
Catalogue of AUC readings, one per entry.
Test: AUC in Wistar rat at 10 mg/kg, po
Format: ADME, organism-based, Plasma
Set-up: dose 10 mg/kg, route oral
Conditions: Wistar, plasma
EXPERIMENTAL_ENDPOINT: AUC

                               given_smiles  recorded_measurement
0  Cc1nc(NC(=O)N2CCC[C@H]2C(N)=O)sc1-c1ccc(-n2cccn2)cc1              4.1 µM·h
1  CC(=O)c1ccc(-c2sc(NC(=O)NCCC(=O)NC(C)(C)C)nc2C)cc1             10.8 µM·h

----------
Target: Phosphatidylinositol 4,5-bisphosphate 3-kinase catalytic subunit gamma isoform (Homo sapiens, UniProt P48736)
Sequence (P48736 whole entry, canonical isoform): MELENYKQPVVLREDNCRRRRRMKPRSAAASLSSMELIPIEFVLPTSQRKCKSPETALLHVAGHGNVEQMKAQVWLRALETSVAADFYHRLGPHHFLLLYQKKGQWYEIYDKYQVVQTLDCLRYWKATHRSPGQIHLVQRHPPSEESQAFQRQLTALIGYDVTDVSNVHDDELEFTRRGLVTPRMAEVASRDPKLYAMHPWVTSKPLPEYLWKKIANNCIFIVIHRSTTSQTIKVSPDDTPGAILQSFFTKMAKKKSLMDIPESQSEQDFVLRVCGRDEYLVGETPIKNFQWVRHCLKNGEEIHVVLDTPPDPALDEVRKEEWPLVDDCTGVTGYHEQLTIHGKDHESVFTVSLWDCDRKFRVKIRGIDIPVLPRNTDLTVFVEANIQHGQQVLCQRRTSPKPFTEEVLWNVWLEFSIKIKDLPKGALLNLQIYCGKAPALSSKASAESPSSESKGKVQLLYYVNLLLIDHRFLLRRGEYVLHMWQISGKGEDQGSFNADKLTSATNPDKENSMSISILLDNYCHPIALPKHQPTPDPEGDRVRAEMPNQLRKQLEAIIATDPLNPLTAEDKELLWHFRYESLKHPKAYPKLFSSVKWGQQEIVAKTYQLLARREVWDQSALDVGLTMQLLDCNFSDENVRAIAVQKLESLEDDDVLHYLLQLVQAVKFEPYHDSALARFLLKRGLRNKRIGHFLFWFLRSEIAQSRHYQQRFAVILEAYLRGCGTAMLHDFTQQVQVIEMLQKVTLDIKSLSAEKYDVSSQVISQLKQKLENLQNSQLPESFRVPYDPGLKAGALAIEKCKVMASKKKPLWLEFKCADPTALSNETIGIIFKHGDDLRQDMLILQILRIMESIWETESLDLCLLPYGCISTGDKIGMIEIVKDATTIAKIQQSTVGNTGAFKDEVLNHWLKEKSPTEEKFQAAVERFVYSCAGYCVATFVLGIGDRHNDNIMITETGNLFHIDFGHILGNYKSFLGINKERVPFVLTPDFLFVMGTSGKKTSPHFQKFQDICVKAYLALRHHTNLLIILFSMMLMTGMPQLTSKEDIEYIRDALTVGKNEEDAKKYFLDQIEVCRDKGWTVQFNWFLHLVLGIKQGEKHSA
EXPERIMENTAL_ENDPOINT: Ki (nM)

                               given_smiles  recorded_measurement
0  CC(=O)Nc1nc(C)c(-c2ccc(S(C)(=O)=O)c(C(F)(F)F)c2)s1                    61
1      CC(=O)Nc1nc(C)c(-c2ccc(C(C)=O)cc2)s1                   260
2  CC(=O)Nc1nc(C)c(-c2ccc(S(N)(=O)=O)cc2)s1                   110
3  CC(=O)Nc1nc(C)c(-c2ccc(S(C)(=O)=O)cc2)s1                   230
4  Cc1nc(NC(=O)N2CCC[C@H]2C(N)=O)sc1-c1ccc(S(C)(=O)=O)c(C(F)(F)F)c1                  1140
5  Cc1cc(NC(=O)CCNC(=O)Nc2nc(C)c(-c3ccc(-n4cccn4)cc3)s2)no1                  1020
6  Cc1nc(NC(=O)N2CCC[C@H]2C(N)=O)sc1-c1ccc(S(C)(=O)=O)cc1                  5810
7  Cc1cc(NC(=O)CCNC(=O)Nc2nc(C)c(-c3ccc(S(C)(=O)=O)c(F)c3)s2)no1                   120
8    CC(=O)Nc1nc(C)c(-c2ccc(-n3cccn3)cc2)s1                   110
9  Cc1nc(NC(=O)N2CCC[C@H]2C(N)=O)sc1-c1ccc(-n2cccn2)cc1                   530
